Test system: SK-MEL-2 melanoma
Method notes: NCI-60 one-dose screen, 48 h
Condition set: 10 µM unless noted
Compounds without any hit were thinned out: in the full panel of roughly 83,000, 20% have a hit. The source made the active and inactive calls. Rule for the calls: active = growth percent below 10; inactive = the rest.
Parameter call: string, one of active, inactive

>  <Compound>
COc1cc(OC)cc(-c2ccc(-c3ccc(C(=N)N)cc3)s2)c1

>  <Assigned category>
active

$$$$
>  <Compound>
CC(O)CCC(C)[N+](=O)[O-] (stereo not drawn)

>  <Assigned category>
inactive

$$$$
>  <Compound>
CC1(C)Oc2cc3oc(=O)ccc3cc2C[C@@H]1OCCOS(=O)(=O)c1ccc(C#N)cc1

>  <Assigned category>
inactive

$$$$
>  <Compound>
COc1ccc(Cn2cc3c(c2-c2ccccc2)CCc2cnoc2-3)cc1N

>  <Assigned category>
inactive

$$$$
>  <Compound>
COc1cc(C(=O)Nc2ccc(N(C)C)cc2)cc(OC)c1OC

>  <Assigned category>
inactive

$$$$
>  <Compound>
COc1ccccc1Nc1nnc(COc2ccc(CNC(=O)CCCC/C=C/C(C)C)cc2OC)o1

>  <Assigned category>
inactive

$$$$
>  <Compound>
CCC(C)[C@H](NC(=O)Nc1cc(C(F)(F)F)cc(C(F)(F)F)c1)C(=O)N[C@@H](Cc1cn(C)cn1)C(=O)OC (stereo partly drawn)

>  <Assigned category>
active

$$$$
>  <Compound>
Cn1cnc2nc[nH]c2c1=S

>  <Assigned category>
inactive

$$$$
>  <Compound>
CC(=O)OC1CC2C3CCC4C[C@@H](NC(=O)C=C(C)C)CC[C@]4(C)C3CC[C@]2(C)[C@H]1C(C)N(C)C (stereo partly drawn)

>  <Assigned category>
active

$$$$
>  <Compound>
C[C@H]1C[C@@H](n2cnc3c(N)nccc32)[C@H](O)[C@@H]1O

>  <Assigned category>
inactive

$$$$

Input line: Tell me the assay call for CCCCN(CCCC)c1ccc(C(=O)O)cc1 please.
Output line: inactive

Input line: Tell me the assay call for CC(=O)OCC1O[C@@H](OC(C)=O)[C@@H](NC(=O)NS(=O)(=O)c2ccccc2)C(OC(C)=O)[C@@H]1OC(C)=O (stereo partly drawn) please.
Output line: active

Input line: Tell me the assay call for COc1ccc(/C(=C(\c2ccccc2)[N+](=O)[O-])c2ccc(OCCN3CCCC3)cc2)cc1 please.
Output line: inactive

Where these numbers come from: PubChem BioAssay (NCI)
